Cited source for all entries: the supplement of paper PMC3545927

Target: furin, P09958;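 also: purified furin at 1:10 enzyme:substrate in 50 mM HEPES pH 7.5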
Sequence (P09958 whole entry): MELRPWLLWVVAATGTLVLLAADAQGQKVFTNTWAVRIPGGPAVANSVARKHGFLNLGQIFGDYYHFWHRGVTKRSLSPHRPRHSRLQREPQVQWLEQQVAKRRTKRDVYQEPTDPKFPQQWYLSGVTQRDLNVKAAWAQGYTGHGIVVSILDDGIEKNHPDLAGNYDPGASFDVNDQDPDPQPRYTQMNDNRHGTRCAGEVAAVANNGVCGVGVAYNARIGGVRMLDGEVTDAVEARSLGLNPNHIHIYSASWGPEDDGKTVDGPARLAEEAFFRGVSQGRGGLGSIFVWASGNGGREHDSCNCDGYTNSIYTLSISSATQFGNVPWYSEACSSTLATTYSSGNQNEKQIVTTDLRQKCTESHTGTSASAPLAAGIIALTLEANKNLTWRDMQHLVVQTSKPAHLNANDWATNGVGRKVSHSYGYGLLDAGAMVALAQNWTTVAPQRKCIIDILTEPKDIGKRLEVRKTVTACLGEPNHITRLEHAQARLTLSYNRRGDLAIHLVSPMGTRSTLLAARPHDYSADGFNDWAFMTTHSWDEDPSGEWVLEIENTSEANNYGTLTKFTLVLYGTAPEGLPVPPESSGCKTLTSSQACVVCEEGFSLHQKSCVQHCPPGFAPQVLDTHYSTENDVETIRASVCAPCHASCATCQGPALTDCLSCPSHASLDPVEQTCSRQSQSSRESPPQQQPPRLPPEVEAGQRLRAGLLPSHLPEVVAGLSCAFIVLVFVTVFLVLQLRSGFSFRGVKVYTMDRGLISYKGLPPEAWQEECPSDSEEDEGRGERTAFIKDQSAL
Assay: furin cleavage Z-score vs untreated control; higher = more cleavage, active = 3.5 or more, inactive = 1 or less, 8 variable residues between constant flanks
Conditions: 30 min
The list shows a part of the results. The true hit rate is not given.
Response enum: T (active), F (inactive)

The examples below pair each entry with its known result.
SEQUENCE | DISCRETE_LABEL
CAEVPCHNPSAGNASASA [HC2381] | F
CASTPCSRHLAGNASASA [HC2533] | F
CARALRNVWQAGNASASA [FS-1682] | F

For the next question, use this sequence.
How did this test come out for CAAKSRPVRDAGNASASA [FS-522] ?
T
